Biological target: human Epidermal Growth Factor Receptor (EGFR), EGFR (gene 1956)
Assay: NVS_ENZ_hEGFR: NovaScreen (NVS) Enzymatic Assay for human Epidermal Growth Factor Receptor (EGFR) (AID 2283151)
Protocol: NVS_ENZ_hEGFR is a biochemical, single-readout assay that uses extracted gene-proteins in a cell-free assay. Measurements were taken 1 hour after chemical dosing in a 384-well plate.NVS_ENZ_hEGFR is one of one assay component(s) measured or calculated from the NVS_ENZ_hEGFR assay. […] This assay endpoint, NVS_ENZ_hEGFR, was analyzed in the positive analysis fitting direction relative to DMSO as the negative control and baseline of activity. […]
Results filed as inconclusive are left out. Active and inactive are the calls of the source. How the source made its calls: active means hit-call score of the fitted dose curve at least 0.9, where 1 is the maximum; inconclusive means response in the unintended direction; inactive means score below 0.9.
Outcomes: Yes = active, No = inactive

- Compound: "Cc1ccc2ncccc2c1"
  Answer Label: "No"
- Compound: "O=C(O)Cc1cc(I)c(Oc2cc(I)c(O)c(I)c2)c(I)c1"
  Answer Label: "No"
- Compound: "CC(=O)Oc1ccccc1C(=O)O"
  Answer Label: "No"
- Compound: "CC(C)CCCCCCOC(=O)C1CCCCC1C(=O)OCCCCCCC(C)C (configuration not stated)"
  Answer Label: "No"
- Compound: "CC/C(=C(/CC)c1ccc(O)cc1)c1ccc(O)cc1"
  Answer Label: "No"
- Compound: "COC(=O)[C@H]1[C@H]2C[C@@H]3c4[nH]c5cc(OC)ccc5c4CCN3C[C@H]2C[C@@H](OC(=O)c2cc(OC)c(OC)c(OC)c2)[C@@H]1OC"
  Answer Label: "No"
- Compound: "N#C[C@@H]1CC(F)(F)CN1C(=O)CNC1CC2CCC(C1)N2c1ncccn1 (some centres not stated)"
  Answer Label: "No"
- Compound: "NC=O"
  Answer Label: "No"
- Compound: "O=C(c1ccc(O)cc1O)c1ccc(O)cc1O"
  Answer Label: "Yes"
- Compound: "O=C(O)c1[nH]n(-c2ccc(S(=O)(=O)O)cc2)c(=O)c1N=Nc1ccc(S(=O)(=O)O)cc1"
  Answer Label: "No"
- Compound: "Cc1ccc(N)cc1O"
  Answer Label: "No"
- Compound: "Nc1ccc2c(c1)C(=O)c1ccccc1C2=O"
  Answer Label: "No"
- Compound: "FC(F)(F)C(F)(F)C(F)(F)C(F)(F)C(F)(F)C(F)(F)CCI"
  Answer Label: "No"
- Compound: "CCCC(CCC)C(=O)O"
  Answer Label: "No"
- Compound: "O=C(O)c1cc(N=Nc2ccc(S(=O)(=O)Nc3ccccn3)cc2)ccc1O"
  Answer Label: "Yes"
- Compound: "O=C(OCCCCCOC(=O)c1ccccc1)c1ccccc1"
  Answer Label: "No"
- Compound: "Cc1ncc([C@@H](CCCCCCc2ccc3c(n2)NCCC3)CC(=O)O)cn1"
  Answer Label: "No"

These data points were gathered from PubChem BioAssay (EPA / NIEHS).
